Source: patent US12139492B2

Biological target: BTK (Homo sapiens, UniProt Q06187)
Sequence (Q06187 whole entry): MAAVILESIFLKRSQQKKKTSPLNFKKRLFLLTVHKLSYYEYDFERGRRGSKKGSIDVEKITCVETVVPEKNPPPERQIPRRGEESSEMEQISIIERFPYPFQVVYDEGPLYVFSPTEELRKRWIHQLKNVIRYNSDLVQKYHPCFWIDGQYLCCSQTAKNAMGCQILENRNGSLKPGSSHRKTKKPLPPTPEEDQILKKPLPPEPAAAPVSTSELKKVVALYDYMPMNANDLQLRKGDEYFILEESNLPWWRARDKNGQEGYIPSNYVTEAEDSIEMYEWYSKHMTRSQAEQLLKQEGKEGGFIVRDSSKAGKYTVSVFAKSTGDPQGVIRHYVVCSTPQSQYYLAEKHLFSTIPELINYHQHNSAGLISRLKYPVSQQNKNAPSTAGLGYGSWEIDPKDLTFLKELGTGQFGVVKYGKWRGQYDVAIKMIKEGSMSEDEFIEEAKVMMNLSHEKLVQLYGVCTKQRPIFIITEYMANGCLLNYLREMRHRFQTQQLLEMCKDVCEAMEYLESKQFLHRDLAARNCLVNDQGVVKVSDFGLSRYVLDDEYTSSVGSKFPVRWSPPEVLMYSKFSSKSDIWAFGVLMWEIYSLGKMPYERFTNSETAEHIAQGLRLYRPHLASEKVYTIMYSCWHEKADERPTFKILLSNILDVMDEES
Experiment: Degradation of BTK protein in Namalwa cells (Western blot; DC50, Dmax)
Conditions: read-out: Dmax (BTK degradation)
Measurement Kind: Dmax

[[record]]
compound = "Nc1ncnc2c1c(-c1ccc(Oc3ccccc3)cc1)nn2[C@@H]1CCCN(C(=O)N2CC(N3CCN(c4ccc5c(c4)CN(C4CCC(=O)NC4=O)C5=O)CC3)C2)C1 (stereo partly drawn) [Compound 488]"
measurement_kind = "Dmax"
data_value = "> 90%"


Ask: Answer with the recorded Dmax for the compound listed here: Nc1ncnc2c1c(-c1ccc(Oc3ccccc3)cc1)nn2C1CCN(C[C@H]2CCN(CC3CCN(c4ccc5c(c4)C(=O)N(C4CCC(=O)NC4=O)C5=O)CC3)C2)CC1 (stereo partly drawn) [Compound 445a]
Reply: > 90%

Ask: Answer with the recorded Dmax for the compound listed here: Nc1ncnc2c1c(-c1ccc(Oc3ccccc3)cc1)nn2C1CCN(CCN2CCN(CCCSc3ccc4c(c3)CN(C3CCC(=O)NC3=O)C4=O)CC2)CC1 (stereo not drawn) [Compound 468]
Reply: > 90%

Ask: Answer with the recorded Dmax for the compound listed here: NC(=O)c1c(-c2ccc(Oc3ccccc3)cc2)nn2c1NCC[C@H]2C1CCN(CC2CCN(C(=O)N3CCC(CN4CCC(c5ccc6c(c5)C(=O)N(C5CCC(=O)NC5=O)C6=O)CC4)CC3)CC2)CC1 (stereo partly drawn) [Compound 415]
Reply: > 75%

Ask: Answer with the recorded Dmax for the compound listed here: NC(=O)c1c(-c2ccc(Oc3ccccc3)cc2)nn2c1NCC[C@H]2C1CCN(CC2CCN(C(=O)N3CCC(N4CCC(c5ccc6c(c5)C(=O)N(C5CCC(=O)NC5=O)C6=O)CC4)CC3)CC2)CC1 (stereo partly drawn) [Compound 407]
Reply: > 75%

Ask: Answer with the recorded Dmax for the compound listed here: Nc1ncnc2c1c(-c1ccc(Oc3ccccc3)cc1)nn2C1CCN(CCN2CCC(Sc3ccc4c(c3)C(=O)N(C3CCC(=O)NC3=O)C4=O)CC2)CC1 (stereo not drawn) [Compound 471]
Reply: > 75%

Ask: Answer with the recorded Dmax for the compound listed here: Nc1ncnc2c1c(-c1ccc(Oc3ccccc3)cc1)nn2C1CCN(CCN2CCC(CN3CCN(c4ccc(N5CCC(=O)NC5=O)cc4)CC3)CC2)CC1 [Compound 554]
Reply: > 90%

Ask: Answer with the recorded Dmax for the compound listed here: Nc1ncnc2c1c(-c1ccc(Oc3ccccc3)cc1)nn2C1CCN(CCCCC#Cc2ccc(N3CCC(=O)NC3=O)cc2)CC1 [Compound 539]
Reply: > 50%

Ask: Answer with the recorded Dmax for the compound listed here: Nc1ncnc2c1c(-c1ccc(Oc3ccccc3)cc1)nn2C1CCN(CCN2CCC(CSc3ccc4c(c3)CN(C3CCC(=O)NC3=O)C4=O)C2)CC1 (stereo not drawn) [Compound 474]
Reply: > 90%

Ask: Answer with the recorded Dmax for the compound listed here: Nc1ncnc2c1c(-c1ccc(Oc3ccccc3)cc1)nn2C1CCN(C2CCN(CC3CCN(CC4CN(c5ccc6c(c5)CN(C5CCC(=O)NC5=O)C6=O)C4)CC3)CC2)CC1 (stereo not drawn) [Compound 436]
Reply: > 90%

###

Target: BTK (Homo sapiens)
Assay: Degradation of BTK protein in Namalwa cells (Western blot; DC50, Dmax)
Conditions: read-out: Dmax (BTK degradation)
Each entry below lists one item and its recorded Dmax value.

# example entries with known answers
[[record]]
compound = "NC1=NC=NC2C1C(c1ccc(Oc3ccccc3)cc1)=NN2C1CCN(C2CN(C(=O)N3CC(C4CN(c5ccc6c(c5)CN(C5CCC(=O)NC5=O)C6=O)C4)C3)C2)CC1 (stereo not drawn)"
data_value = "> 90%"

[[record]]
compound = "Nc1ncnc2c1c(-c1ccc(Oc3ccccc3)cc1)nn2C1CCN(CCCN2CCC(CN3CCN(c4ccc(N5CCC(=O)NC5=O)cc4)CC3)C2)CC1 (stereo not drawn)"
data_value = "> 90%"


Next:
Ask: Answer with the recorded Dmax for the compound listed here: Nc1ncnc2c1c(-c1ccc(Oc3ccccc3)cc1)nn2C1CCN(C2CCN(CC3CCN(c4ccc5c(c4)CN(C4CCC(=O)NC4=O)C5=O)C3)C2)CC1 (stereo not drawn)
Reply: > 75%
